- measured.target: T1, cynomolgus TNFR2 on cells (cynomolgus)
- T1 construct: whole, on cells; also called cynomolgus TNFR2 on CD4+ and CD8+ T cells
- test.details: flow cytometry on cynomolgus PBMC, antibody at 10 ug/mL, anti-human Fc-PE secondary
Parameter % CD8^+ ab^+ Donor 2: see the listing below.
Report the figure in % without appending any unit label.

Here's what some known entries look like.
binder	measurement.units	% CD8^+ ab^+ Donor 2
chimeric SBT-002 (antibody, V domains shown, also called chSBT-002) VH: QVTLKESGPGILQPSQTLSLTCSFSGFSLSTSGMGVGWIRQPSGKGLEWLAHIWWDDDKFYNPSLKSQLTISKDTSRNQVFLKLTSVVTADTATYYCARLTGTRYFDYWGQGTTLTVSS VL: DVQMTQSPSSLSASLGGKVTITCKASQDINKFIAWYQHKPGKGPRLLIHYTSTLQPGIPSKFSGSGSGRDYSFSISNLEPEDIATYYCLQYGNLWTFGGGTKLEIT	%	29
chimeric SBT-004b (antibody, human IgG1, V domains shown, Same heavy chain as chSBT-004 (human IgG1 Fc domain); also called chSBT-004b) VH: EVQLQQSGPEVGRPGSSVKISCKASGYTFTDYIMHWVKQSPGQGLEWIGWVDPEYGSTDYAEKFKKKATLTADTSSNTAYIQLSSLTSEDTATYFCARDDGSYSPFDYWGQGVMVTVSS VL: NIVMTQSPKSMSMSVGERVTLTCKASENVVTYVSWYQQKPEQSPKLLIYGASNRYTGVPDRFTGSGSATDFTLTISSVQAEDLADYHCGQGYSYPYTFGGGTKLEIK	%	11

We next turn to a different binder, shown below.
The binder identified as chimeric SBT-003 (antibody, V domains shown, also called chSBT-003) VH: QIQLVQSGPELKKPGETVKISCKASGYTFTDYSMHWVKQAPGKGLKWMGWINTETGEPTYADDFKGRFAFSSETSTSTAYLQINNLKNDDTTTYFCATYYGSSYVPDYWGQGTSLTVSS VL: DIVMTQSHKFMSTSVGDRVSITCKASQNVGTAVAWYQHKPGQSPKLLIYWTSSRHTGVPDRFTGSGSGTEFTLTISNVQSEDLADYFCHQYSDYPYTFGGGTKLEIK registered its % CD8^+ ab^+ Donor 2 at 2.1
